molecular target: Isoform 2 of Hepatocyte growth factor receptor (2) (Homo sapiens, UniProt P08581); test: c-Met Z-LYTE Assay; conditions: pH 7; 25 °C
Sequence (P08581 as listed by the source): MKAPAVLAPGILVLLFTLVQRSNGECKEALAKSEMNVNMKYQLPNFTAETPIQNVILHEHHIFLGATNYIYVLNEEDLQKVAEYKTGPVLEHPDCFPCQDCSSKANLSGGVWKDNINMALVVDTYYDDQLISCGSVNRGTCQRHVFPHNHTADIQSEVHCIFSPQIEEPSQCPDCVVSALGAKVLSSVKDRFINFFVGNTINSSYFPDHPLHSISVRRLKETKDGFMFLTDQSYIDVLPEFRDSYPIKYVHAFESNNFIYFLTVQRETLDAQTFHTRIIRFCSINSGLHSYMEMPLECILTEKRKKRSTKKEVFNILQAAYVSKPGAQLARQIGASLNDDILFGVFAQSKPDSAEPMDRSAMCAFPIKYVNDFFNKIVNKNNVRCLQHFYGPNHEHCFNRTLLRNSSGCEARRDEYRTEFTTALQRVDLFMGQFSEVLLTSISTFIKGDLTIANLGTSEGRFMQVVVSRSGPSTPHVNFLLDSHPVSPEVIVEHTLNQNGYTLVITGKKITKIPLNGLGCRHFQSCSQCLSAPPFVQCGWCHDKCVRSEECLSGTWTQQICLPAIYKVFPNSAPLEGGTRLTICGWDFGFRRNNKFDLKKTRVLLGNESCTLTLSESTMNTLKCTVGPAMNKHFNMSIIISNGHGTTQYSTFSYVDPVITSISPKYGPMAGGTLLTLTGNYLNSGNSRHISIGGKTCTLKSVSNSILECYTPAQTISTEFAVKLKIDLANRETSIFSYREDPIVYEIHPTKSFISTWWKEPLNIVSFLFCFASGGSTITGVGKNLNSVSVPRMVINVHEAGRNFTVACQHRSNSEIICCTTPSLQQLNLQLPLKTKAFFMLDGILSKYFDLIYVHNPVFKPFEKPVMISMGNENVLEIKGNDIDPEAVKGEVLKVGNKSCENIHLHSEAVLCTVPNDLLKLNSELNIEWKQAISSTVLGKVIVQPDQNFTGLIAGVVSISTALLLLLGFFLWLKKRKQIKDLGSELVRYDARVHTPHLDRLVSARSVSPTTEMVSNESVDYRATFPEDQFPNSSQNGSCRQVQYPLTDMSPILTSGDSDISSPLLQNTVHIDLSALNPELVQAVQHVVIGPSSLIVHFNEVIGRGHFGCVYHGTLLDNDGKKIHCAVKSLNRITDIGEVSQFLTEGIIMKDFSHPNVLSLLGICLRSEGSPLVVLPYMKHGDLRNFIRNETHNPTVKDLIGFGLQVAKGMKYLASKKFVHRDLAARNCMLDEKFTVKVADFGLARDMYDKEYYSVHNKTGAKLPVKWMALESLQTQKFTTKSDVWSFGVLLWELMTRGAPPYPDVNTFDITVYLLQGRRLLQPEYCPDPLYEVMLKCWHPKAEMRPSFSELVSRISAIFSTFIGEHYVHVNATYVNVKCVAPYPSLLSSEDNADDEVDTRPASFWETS
observable: IC50 (nM)

molecule	assayed_system	IC50 [nM]
O=C(NCc1ccc(F)cc1)Nc1ccc(Oc2ccnc3[nH]ccc23)c(F)c1	Isoform 2 of Hepatocyte growth factor receptor (2) (Homo sapiens, UniProt P08581)	11
Fc1ccc(Cl)c(C2(c3n[nH]c4ncc(-c5cnn(C6CCNCC6)c5)cc34)CC2)c1Cl	Isoform 2 of Hepatocyte growth factor receptor (2) (Homo sapiens, UniProt P08581)	47.4
Cc1[nH]c2ncc(-c3cnn(C4CCNCC4)c3)cc2c1C(C)c1c(Cl)ccc(F)c1Cl (centres undefined)	Isoform 2 of Hepatocyte growth factor receptor (2) (Homo sapiens, UniProt P08581)	286

a = O=C(NCc1ccc(F)cc1)Nc1ccc(Oc2ccnc3[nH]c(-c4cccnc4)cc23)c(F)c1
b = Fc1ccc(Cl)c(Sc2n[nH]c3ncc(-c4cnn(C5CCNCC5)c4)cc23)c1Cl
c = CC(Sc1cc(-c2cnn(C3CCNCC3)c2)cnc1N)c1c(Cl)ccc(F)c1Cl (centres undefined)
Given 3 molecules, produce a descending ranking by IC50. When ranking, write the labels in the order the request describes.
c, b, a

1 = CC(c1c(Cl)ccc(F)c1Cl)c1c(Cl)[nH]c2ncc(-c3cnn(C4CCNCC4)c3)cc12 (centres undefined)
2 = c1ccc(-c2cnc3nnc(C4(c5ccc6ncccc6c5)CC4)n3n2)cc1
# return whichever of 1 and 2 has the smaller IC50 Identify your pick by its label.
2

Origin of the recorded values: BindingDB's records for doi:10.1016/j.bioorg.2016.02.009
